# subject of test: Cholesteryl ester transfer protein (Homo sapiens)
# Sequence (P11597 whole entry): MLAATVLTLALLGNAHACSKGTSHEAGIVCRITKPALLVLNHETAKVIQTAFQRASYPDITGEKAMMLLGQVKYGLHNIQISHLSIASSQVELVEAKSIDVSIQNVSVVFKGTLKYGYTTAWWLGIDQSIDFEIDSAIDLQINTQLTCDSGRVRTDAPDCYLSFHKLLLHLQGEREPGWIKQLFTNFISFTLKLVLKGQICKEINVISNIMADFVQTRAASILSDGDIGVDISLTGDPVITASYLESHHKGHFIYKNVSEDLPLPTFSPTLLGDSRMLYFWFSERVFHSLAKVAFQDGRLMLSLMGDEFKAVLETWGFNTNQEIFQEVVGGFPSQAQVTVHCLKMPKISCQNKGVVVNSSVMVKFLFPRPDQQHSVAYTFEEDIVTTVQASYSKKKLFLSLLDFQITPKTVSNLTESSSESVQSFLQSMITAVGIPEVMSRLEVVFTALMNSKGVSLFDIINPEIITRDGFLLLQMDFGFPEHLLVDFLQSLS
# test description: Inhibition of recombinant full length human CETP expressed in CHO cells assessed as reduction in BODIPY-CE transfer measured after 1 to 3 hrs by fluorescence assay
endpoint label: IC50 (µM)

| chemical string | unit of measurement | reported measurement |
| --- | --- | --- |
| CCOC(=O)N1c2ccc(C(F)(F)F)cc2[C@@H](NC(=O)CC(=O)O[C@H]2CC[C@]3(C)[C@H]4CC=C5[C@@H]6[C@@H](C)[C@H](C)CC[C@]6(C(=O)O)CC[C@@]5(C)[C@]4(C)CC[C@H]3C2(C)C)C[C@H]1CC | µM | 4.42 |

P: CCOC(=O)N1c2ccc(C(F)(F)F)cc2[C@@H](NC(=O)CCCC(=O)O[C@H]2CC[C@]3(C)[C@H]4CC=C5[C@@H]6[C@@H](C)[C@H](C)CC[C@]6(C(=O)O)CC[C@@]5(C)[C@]4(C)CC[C@H]3C2(C)C)C[C@H]1CC
Q: CCOC(=O)N1c2ccc(C(F)(F)F)cc2[C@@H](NC(=O)CCC(=O)O[C@H]2CC[C@]3(C)[C@H]4CC=C5[C@@H]6[C@@H](C)[C@H](C)CC[C@]6(C(=O)O)CC[C@@]5(C)[C@]4(C)CC[C@H]3C2(C)C)C[C@H]1CC
Endpoint returns the identifier whose IC50 is numerically larger, either P or Q . Give the label of your selection.
P

* * *

# reported IC50; entries follow
# subject of test: UniProt P11597
# test description: Inhibition of recombinant full length human CETP expressed in CHO cells assessed as reduction in BODIPY-CE transfer measured after 1 to 3 hrs by fluorescence assay

Recorded IC50, per entry:
| chemical string | subject of test | reported measurement |
| --- | --- | --- |
| CCOC(=O)N1c2ccc(C(F)(F)F)cc2[C@@H](NC(=O)CC(=O)O[C@H]2CC[C@]3(C)[C@H]4CC=C5[C@@H]6CC(C)(C)CC[C@]6(C(=O)O)CC[C@@]5(C)[C@]4(C)CC[C@H]3C2(C)C)C[C@H]1CC | UniProt P11597 | > 50 µM |
| CCOC(=O)N1c2ccc(C(F)(F)F)cc2[C@@H](NC(=O)CCC(=O)O[C@H]2CC[C@]3(C)[C@H]4CC=C5[C@@H]6CC(C)(C)CC[C@]6(C(=O)O)CC[C@@]5(C)[C@]4(C)CC[C@H]3C2(C)C)C[C@H]1CC | UniProt P11597 | > 50 µM |

Proceeding to the next compound to report its IC50.
Tell me the measured IC50 of CCOC(=O)N1c2ccc(C(F)(F)F)cc2[C@@H](NC(=O)CCCC(=O)O[C@H]2CC[C@]3(C)[C@H]4CC=C5[C@@H]6CC(C)(C)CC[C@]6(C(=O)O)CC[C@@]5(C)[C@]4(C)CC[C@H]3C2(C)C)C[C@H]1CC , please.
> 50 µM
